test: in vivo; settings: beagle, dog, iv, 0.4 mg/kg
Description: Volume of distribution at steady state in beagle dog at 0.4 mg/kg, iv cassette dosing by LC-MS/MS method

{"columns": ["Molecule smiles", "Vd [L/kg]"],
 "data": [
  ["O=C(/C=C/c1cc(Cl)ccc1-n1cnnn1)N[C@@H](Cc1ccccc1)C(=O)Nc1ccc(C(=O)O)cc1", 0.5]
]}

----------
experiment: in vivo; settings: beagle, dog, iv, 0.4 mg/kg
Description: Half life in beagle dog at 0.4 mg/kg, iv cassette dosing by LC-MS/MS method
Measured endpoint: half-life

{"columns": ["Molecule smiles", "Experimental result"],
 "data": [
  ["O=C(/C=C/c1cc(Cl)ccc1-n1cnnn1)N[C@@H](Cc1ccccc1)C(=O)Nc1ccc(C(=O)O)cc1", "36 min"]
]}

----------
assay: in vivo; conditions: beagle, dog, iv, 0.4 mg/kg
Description: Total AUC in beagle dog at 0.4 mg/kg, iv administered as cassette dosing by LC-MS/MS method

{"columns": ["Molecule smiles", "AUC"],
 "data": [
  ["O=C(/C=C/c1cc(Cl)ccc1-n1cnnn1)N[C@@H](Cc1ccccc1)C(=O)Nc1ccc(C(=O)O)cc1", "0.396 µM·h"]
]}
